Source of measurements: paper PMC6556873

Target: NUDT7 (Homo sapiens)
Construct: residues 14-235, E. coli, pNIC28-Bsa4, N-terminal His6 tag removed by TEV, construct 26672 Da
Sequence (P0C024 14-235): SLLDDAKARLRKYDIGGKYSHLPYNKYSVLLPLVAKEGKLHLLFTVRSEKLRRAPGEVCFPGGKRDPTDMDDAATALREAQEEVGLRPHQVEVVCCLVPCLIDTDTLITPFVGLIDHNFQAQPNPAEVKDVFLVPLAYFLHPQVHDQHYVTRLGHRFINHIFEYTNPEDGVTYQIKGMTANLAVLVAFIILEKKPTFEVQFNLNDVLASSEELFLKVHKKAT
Design: Intact protein LC/MS covalent labelling, fragments in pools of five, 200 uM each, 4 °C
Settings: 24 h, 4 °C, pool of five; 200 µM; covalent
// NUDT7 lookup, one value per entry
Reply briefly: the number, and no unit.

Solved entries:
{"compound": "NS(=O)(=O)c1cccc(NC(=O)CCl)c1", "NUDT7": 0}
{"compound": "Cc1cc(NC(=O)CCl)n(C(C)(C)C)n1", "NUDT7": 0}
{"compound": "CN(C(=O)CCl)C1(c2ccccc2Cl)CCCCC1=O (centres unmarked)", "NUDT7": 0}
{"compound": "O=C(CCl)Nc1ccc2[nH]c(C(F)(F)F)nc2c1", "NUDT7": 0.07}
{"compound": "CC(=O)Nc1ccc(NC(=O)CCl)cc1", "NUDT7": 0}
{"compound": "O=C(CCl)N(c1ccc(F)cc1)C1C=CS(=O)(=O)C1 (centres unmarked)", "NUDT7": 0.34}

Note to self: NUDT7 recorded for O=C(Nc1ccccc1O)C1CCN(C(=O)CCl)CC1 was 0.1

Note to self: NUDT7 recorded for Cl.O=C(CCl)Nc1ccc(N2CCCC2)cc1 was 0

---

Test: in vitro
Design: species or system HB2, HEK293
Conditions: human, ccd841 cells
Threshold 80%. viability at 48 h, 10 µM below it: met. viability at 48 h, 10 µM at it or above: not met.

{"compound": "COc1cccc(NC(=O)CCl)c1", "assigned_category": "met"}
{"compound": "CC(=O)Nc1ccc(NC(=O)CCl)cc1", "assigned_category": "met"}
{"compound": "C=CC(=O)NCC1C2Cc3ccccc3C12 (stereo not shown)", "assigned_category": "not met"}
{"compound": "N#CC(c1cccs1)N1CCN(C(=O)CCl)CC1 (stereo not shown)", "assigned_category": "met"}
{"compound": "Cc1oc(NC(=O)CCl)c(C#N)c1C", "assigned_category": "met"}

Query string: Dear reviewer, please state whether N#CC1(NC(=O)CCl)CCCCCC1 has viability at 48 h, 10 µM strictly beneath 80%.
Result string: met

Query string: Dear reviewer, please state whether C=CC(=O)N1CCC(CN)CC1.Cl has viability at 48 h, 10 µM strictly beneath 80%.
Result string: not met

---

// OTUB2 lookup, one value per entry
Target: OTUB2 (OTUB2A) (Homo sapiens)
Construct: full length residues 1-234, E. coli BL21(DE3)-R3, His tag removed by TEV, construct 27312 Da
Sequence (Q96DC9 whole entry, the tested form may be a part): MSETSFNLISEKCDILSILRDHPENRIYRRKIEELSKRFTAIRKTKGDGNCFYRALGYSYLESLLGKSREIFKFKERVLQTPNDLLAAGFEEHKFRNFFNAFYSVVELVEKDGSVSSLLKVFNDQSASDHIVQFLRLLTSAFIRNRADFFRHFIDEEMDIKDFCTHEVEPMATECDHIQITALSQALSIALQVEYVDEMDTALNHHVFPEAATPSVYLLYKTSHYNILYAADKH
Design: Intact protein LC/MS covalent labelling, fragments in pools of five, 200 uM each, 4 °C
Settings: 24 h, 4 °C, pool of five; 200 µM; covalent
Reply briefly: the number, and no unit.

Solved entries:
{"molecule": "CC1CCC(NC(=O)CCl)CC1 (centres unmarked) [PCM-0102913]", "target_entity": "OTUB2 (OTUB2A) (Homo sapiens)", "OTUB2": 0.08}
{"molecule": "Cc1ccc(N(C(=O)CCl)C2C=CS(=O)(=O)C2)cc1C (centres unmarked) [PCM-0103082]", "target_entity": "OTUB2 (OTUB2A) (Homo sapiens)", "OTUB2": 0}
{"molecule": "O=C(CCl)Nc1ccc(O)cc1 [PCM-0102163]", "target_entity": "OTUB2 (OTUB2A) (Homo sapiens)", "OTUB2": 0.16}

Note to self: OTUB2 recorded for O=C1CN(C(=O)CCl)c2ccccc2N1 [PCM-0102362] was 0

Note to self: OTUB2 recorded for Cl.O=C(CCl)NC1CCN(C2CC2)CC1 [PCM-0103055] was 0

Note to self: OTUB2 recorded for O=C(CCl)NCC12CC3CC(CC(Br)(C3)C1)C2 [PCM-0102819] was 0.63

---

// BSA lookup, one value per entry
Target: BSA (Bos taurus)
Construct: gene ALB
Sequence (P02769 whole entry): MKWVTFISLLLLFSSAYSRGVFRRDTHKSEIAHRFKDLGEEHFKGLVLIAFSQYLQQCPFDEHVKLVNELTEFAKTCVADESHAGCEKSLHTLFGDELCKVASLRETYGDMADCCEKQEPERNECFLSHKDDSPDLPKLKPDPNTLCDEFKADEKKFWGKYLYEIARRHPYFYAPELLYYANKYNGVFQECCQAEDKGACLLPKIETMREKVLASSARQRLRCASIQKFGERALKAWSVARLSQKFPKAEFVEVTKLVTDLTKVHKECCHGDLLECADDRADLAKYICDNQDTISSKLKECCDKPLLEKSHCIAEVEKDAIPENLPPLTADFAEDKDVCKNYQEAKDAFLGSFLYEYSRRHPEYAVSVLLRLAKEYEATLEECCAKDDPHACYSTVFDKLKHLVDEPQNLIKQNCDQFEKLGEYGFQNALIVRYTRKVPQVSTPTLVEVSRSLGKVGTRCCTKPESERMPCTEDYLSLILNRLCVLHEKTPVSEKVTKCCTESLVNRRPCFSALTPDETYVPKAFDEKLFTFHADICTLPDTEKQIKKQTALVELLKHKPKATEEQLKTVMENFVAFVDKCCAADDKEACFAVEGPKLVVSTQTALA
Design: Intact protein LC/MS covalent labelling, fragments in pools of five, 200 uM each, 4 °C
Conditions: 24 h, 4 °C, pool of five; 200 µM; covalent
Reply briefly: the number, and no unit.

Note to self: BSA recorded for COc1ccc(NC(=O)CCl)cc1Cl [PCM-0102652] was 0

Note to self: BSA recorded for O=C(CCl)NCc1ccccc1F [PCM-0102149] was 0

Note to self: BSA recorded for CC12CCC(CC1=NNC(=O)CCl)C2(C)C (stereo not shown) [PCM-0102498] was 0

Note to self: BSA recorded for CC1CCCCC1NC(=O)NC(=O)CCl (stereo not shown) [PCM-0102292] was 0

Note to self: BSA recorded for O=C(CCl)Nc1ccc(N2CCCC2=O)cc1 [PCM-0102915] was 0

---

Assay: in vitro
Parameters: species or system HB2, CCD841
Settings: human, hek293 cells
Threshold 80%. viability at 48 h, 10 µM below it: Y. viability at 48 h, 10 µM at it or above: N.

{"compound": "O=C(CCl)NCC1Cc2ccccc2O1 (centres unmarked) [PCM-0103020]", "assigned_category": "N"}
{"compound": "C=CC(=O)N1CC=C(C(F)(F)F)CC1 [PCM-0102685]", "assigned_category": "N"}
{"compound": "O=C(CCl)Nc1cc2c(cc1Cl)C(=O)c1ccccc1C2=O [PCM-0102757]", "assigned_category": "Y"}
{"compound": "C=CC(=O)N1CCC(n2cc(C)cn2)CC1 [PCM-0102423]", "assigned_category": "N"}
{"compound": "C=CC(=O)N1CCn2c(cc3c(Cl)cccc32)C1 [PCM-0102835]", "assigned_category": "Y"}
{"compound": "CCc1sc(C(=O)NNC(=O)CCl)cc1C [PCM-0103009]", "assigned_category": "Y"}
{"compound": "CC(NC(=O)CCl)c1ccccc1 (centres unmarked) [PCM-0102128]", "assigned_category": "N"}
{"compound": "O=C(CCl)N1CCN(c2ccccc2[N+](=O)[O-])CC1 [PCM-0103016]", "assigned_category": "Y"}
{"compound": "O=C(CCl)NC(=O)c1cccs1 [PCM-0102222]", "assigned_category": "N"}
{"compound": "O=C(CCl)Nc1cc([N+](=O)[O-])ccc1F [PCM-0102544]", "assigned_category": "Y"}

Query string: Dear reviewer, please state whether C=CC(=O)NC1(C#N)CCOC1 (centres unmarked) [PCM-0103049] has viability at 48 h, 10 µM strictly beneath 80%.
Result string: N

Query string: Dear reviewer, please state whether CC(NC(=O)CCl)c1cc2ccccc2o1 (centres unmarked) [PCM-0102117] has viability at 48 h, 10 µM strictly beneath 80%.
Result string: Y

Query string: Dear reviewer, please state whether O=C(CCl)Nc1cc([N+](=O)[O-])ccc1Cl [PCM-0102366] has viability at 48 h, 10 µM strictly beneath 80%.
Result string: Y

Query string: Dear reviewer, please state whether Cn1cccc1C(=O)NC(=O)CCl [PCM-0102863] has viability at 48 h, 10 µM strictly beneath 80%.
Result string: N

---

Assay: in vitro
Set-up: species or system HB2, CCD841
Conditions: human, hek293 cells
Reported viability at 48 h, 10 µM maps to class as: lower level = under 60%, middle level = from 60% up to 80%, upper level = 80% and over

Illustrative cases are given below, each with its answer.
{"compound": "Cc1ccc(NC(=O)NC(=O)CCl)c(C)c1", "assigned_category": "middle level"}
{"compound": "O=C(CCl)NCc1ccc(Cl)s1", "assigned_category": "middle level"}
{"compound": "O=C(CCl)NC(=O)Nc1ccc2c(c1)OCO2", "assigned_category": "upper level"}
{"compound": "O=C(CCl)NC1(c2ccc3c(c2)OCCO3)CCCC1", "assigned_category": "lower level"}
{"compound": "CC(NC(=O)CCl)C(=O)N(C)C (centres unmarked)", "assigned_category": "upper level"}

Query string: Which viability at 48 h, 10 µM band matches Cc1cc(C)c(NC(=O)CCl)c(C)c1 ?
Result string: middle level

Query string: Which viability at 48 h, 10 µM band matches N#Cc1c(NC(=O)CCl)sc2c1CCCC2 ?
Result string: middle level

Query string: Which viability at 48 h, 10 µM band matches N#CC1(N2CCN(C(=O)CCl)CC2)CCCCC1 ?
Result string: upper level

Query string: Which viability at 48 h, 10 µM band matches C=CC(=O)NC(C)(C)c1noc(C(C)(C)C)n1 ?
Result string: upper level

Query string: Which viability at 48 h, 10 µM band matches O=C(CCl)NNC(=O)c1cccs1 ?
Result string: upper level

Query string: Which viability at 48 h, 10 µM band matches C=CC(=O)N1CCC(c2nc(C(F)(F)F)c[nH]2)CC1 ?
Result string: upper level

Query string: Which viability at 48 h, 10 µM band matches O=C(CCl)Nc1ccc(N2CCCCC2)cc1 ?
Result string: lower level

Query string: Which viability at 48 h, 10 µM band matches C=CC(=O)NC(C)c1ccc(C(F)(F)F)nc1Cl (centres unmarked) ?
Result string: upper level

Query string: Which viability at 48 h, 10 µM band matches COC(=O)C1CN(C(=O)CCl)c2ccccc2O1 (centres unmarked) ?
Result string: upper level

Query string: Which viability at 48 h, 10 µM band matches Cc1ccc(NC(=O)CCl)cc1Br ?
Result string: lower level

Query string: Which viability at 48 h, 10 µM band matches CS(=O)(=O)c1cccc(NC(=O)CCl)c1 ?
Result string: lower level

Query string: Which viability at 48 h, 10 µM band matches O=C(CCl)Nc1ccc(F)c([N+](=O)[O-])c1 ?
Result string: lower level

Query string: Which viability at 48 h, 10 µM band matches C=CC(=O)NCc1c2c(nn1C)CCCC2 ?
Result string: middle level

Query string: Which viability at 48 h, 10 µM band matches Cc1cc(N2CCN(C(=O)CCl)CC2)nc(C(C)C)n1 ?
Result string: upper level

Query string: Which viability at 48 h, 10 µM band matches O=C(CCl)Nc1ccc2c(c1)OCCCO2 ?
Result string: lower level

Query string: Which viability at 48 h, 10 µM band matches Cl.O=C(CCl)NC1CCN(C2CC2)CC1 ?
Result string: upper level

Query string: Which viability at 48 h, 10 µM band matches O=C(CCl)N(CC(F)(F)F)c1ccc(Cl)cc1 ?
Result string: lower level

Query string: Which viability at 48 h, 10 µM band matches O=C(CCl)N1CCc2cc(S(=O)(=O)N3CCCCC3)ccc21 ?
Result string: lower level

Query string: Which viability at 48 h, 10 µM band matches CN(C(=O)CCl)c1ccc([N+](=O)[O-])cc1 ?
Result string: lower level

Query string: Which viability at 48 h, 10 µM band matches NS(=O)(=O)c1cccc(NC(=O)CCl)c1 ?
Result string: lower level

Query string: Which viability at 48 h, 10 µM band matches O=C(CCl)N1CCN(S(=O)(=O)c2ccc(F)c(F)c2)CC1 ?
Result string: lower level

Query string: Which viability at 48 h, 10 µM band matches O=C(CCl)NCc1ccco1 ?
Result string: upper level

Query string: Which viability at 48 h, 10 µM band matches O=C(CCl)Nc1nc2ccc(Br)cc2s1 ?
Result string: upper level

Query string: Which viability at 48 h, 10 µM band matches CCC(C)NC(=O)NC(=O)CCl (centres unmarked) ?
Result string: upper level

Query string: Which viability at 48 h, 10 µM band matches O=C(CCl)NCC1CCCO1 (centres unmarked) ?
Result string: upper level

Query string: Which viability at 48 h, 10 µM band matches Cc1ccc(C)c(-n2nc(C)cc2NC(=O)CCl)c1 ?
Result string: lower level
